measurement conditions: in ethyl acetate, 300.15 K
experimental endpoint: solubility (mole fraction)
API note: the answer field is a bare number with no unit suffix.

stdin: Hello, please tell me recorded solubility (mole fraction) for this one: O=C1NC(=O)c2ccccc21
stdout: 0.00813

---

measurement conditions: in ethanol, 310.65 K
experimental endpoint: solubility (mole fraction)
Number only, no unit.

stdin: Please give the documented solubility (mole fraction) of O=C1NC(=O)c2ccccc21
stdout: 0.00409

---

measurement conditions: in n-propanol, 293.15 K
experimental endpoint: solubility (mole fraction)

stdin: Fill in solubility (mole fraction) for record O=C1NC(=O)c2ccccc21
stdout: 0.00222

---

measurement conditions: in isobutanol, 283.15 K
experimental endpoint: solubility (mole fraction)

stdin: Determine its reported solubility (mole fraction): O=C1NC(=O)c2ccccc21
stdout: 0.0014

---

measurement conditions: in n-propanol, 308.15 K
experimental endpoint: solubility (mole fraction)
Number, no unit, nothing else.

stdin: Give the reported value of solubility (mole fraction) for this record: O=C1NC(=O)c2ccccc21
stdout: 0.00369

---

measurement conditions: in acetone, 298.15 K
experimental endpoint: solubility (mole fraction)
A bare number is all that is needed in reply.

stdin: Fill in solubility (mole fraction) for record O=C1NC(=O)c2ccccc21
stdout: 0.0128

---

measurement conditions: in ethanol, 303.15 K
experimental endpoint: solubility (mole fraction)
I only need the number, thanks.

stdin: Return reported solubility (mole fraction). Input compound: O=C1NC(=O)c2ccccc21
stdout: 0.00302

---

measurement conditions: in toluene, 290.65 K
experimental endpoint: solubility (mole fraction)
Number only, no unit.

stdin: Give a short answer stating reported solubility (mole fraction) for O=C1NC(=O)c2ccccc21 .
stdout: 0.000401

---

measurement conditions: in ethyl acetate, 318.15 K
experimental endpoint: solubility (mole fraction)
# respond with the number and nothing more

stdin: Recall and state the measured solubility (mole fraction) for O=C1NC(=O)c2ccccc21 .
stdout: 0.0152

---

measurement conditions: in n-propanol, 310.65 K
experimental endpoint: solubility (mole fraction)

stdin: Annotate the molecule O=C1NC(=O)c2ccccc21 with its measured solubility (mole fraction).
stdout: 0.00399

---

measurement conditions: in acetone, 290.65 K
experimental endpoint: solubility (mole fraction)
Give only the figure.

stdin: Read the entry O=C1NC(=O)c2ccccc21 and write its reported solubility (mole fraction).
stdout: 0.0101

---

measurement conditions: in isobutanol, 303.15 K
experimental endpoint: solubility (mole fraction)
# answer = number (no unit)

stdin: Name the recorded solubility (mole fraction) of the item O=C1NC(=O)c2ccccc21 in your answer.
stdout: 0.00292

---

measurement conditions: in toluene, 313.15 K
experimental endpoint: solubility (mole fraction)
Lab note: jot the number down without any unit.

stdin: Recall and state the measured solubility (mole fraction) for O=C1NC(=O)c2ccccc21 .
stdout: 0.000969

---

measurement conditions: in isopropanol, 298.15 K
experimental endpoint: solubility (mole fraction)
Please reply with the number alone, leaving off any unit.

stdin: Give me measured solubility (mole fraction), please, for this molecule: O=C1NC(=O)c2ccccc21
stdout: 0.00298

---

measurement conditions: in ethyl acetate, 308.15 K
experimental endpoint: solubility (mole fraction)
Answer with a number only.

stdin: Give recorded solubility (mole fraction). O=C1NC(=O)c2ccccc21
stdout: 0.0105

---

measurement conditions: in ethyl acetate, 295.65 K
experimental endpoint: solubility (mole fraction)
Output spec: single numeric token, no unit.

stdin: Supply solubility (mole fraction) value. Item: O=C1NC(=O)c2ccccc21
stdout: 0.00677
